- System: murine macrophage J774.A1 cells
- Procedure details: Nitric oxide (NO) inhibition in LPS-stimulated J774.A1 cells (Griess)
- Type: cell-based
- Test conditions: J774.A1 cells, 100 ng/ml LPS, 16 h; Tables 1-3; read-out: NO IC50
Assay metric: log10(IC50) (log10 of the value in µM)
Form field - Quantity: IC50; Unit: µM; Scale: log10

Identify log10(IC50) associated with the compound CCCCCCCCCCCCCCCC(=O)NCCCCC(N)C(=O)NCCCNCCCCNCCCN [Compound 14, L-Lys(palmitoyl)-N^1-spermine]
0.81

Identify log10(IC50) associated with the compound NCCCNCCCCNCCCNC(=O)C(N)CCCCNCc1ccc(-c2ccccc2)cc1 [Compound 39, D-Lys-ε-(4-phenylbenzyl)-N^1-spermine]
2.02

Identify log10(IC50) associated with the compound CCCCCCCNCCCCC(N)C(=O)NCCCNCCCCNCCCN (stereo not drawn) [Compound 29]
1.67

Identify log10(IC50) associated with the compound CCCCCCCC(=O)NCCCCC(N)C(=O)NCCCNCCCCNCCCN [Compound 17, L-Lys-ε-(octanoyl)-N^1-spermine]
2.21

Identify log10(IC50) associated with the compound CCCC/C=C/CCCCCCCCCC(=O)NCCCCC(N)C(=O)NCCCNCCCCNCCCN (stereo not drawn) [Compound 15]
0.95

Identify log10(IC50) associated with the compound CC(C)(C)CCNCCCCC(N)C(=O)NCCCNCCCCNCCCN (stereo not drawn) [Compound 34]
2.92

Identify log10(IC50) associated with the compound CCCCCCCCCCCCCCCCCC(=O)NCCCCC(N)C(=O)NCCCNCCCCNCCCN [Compound 9, L-Lys-ε-(stearoyl)-N^1-spermine]
1.26

Identify log10(IC50) associated with the compound CCCCCCCNCCCCC(N)C(=O)NCCCNCCCCNCCCN (stereo not drawn) [Compound 28]
1.92

Identify log10(IC50) associated with the compound NCCCNCCCCNCCCNC(=O)C(N)CCCCNC(=O)c1ccc(-c2ccccc2)cc1 (stereo not drawn) [Compound 21]
2.09

Identify log10(IC50) associated with the compound CCCCCCCCCCCCCCCCCC(=O)NCCCCC(N)C(=O)NCCCNCCCCNCCCN [Compound 8, D-Lys-ε-(stearoyl)-N^1-spermine]
0.30

Identify log10(IC50) associated with the compound CCCCCCCCCCCCCCCC(=O)NCCCCC(N)C(=O)NCCCNCCCCNCCCN [Compound 13, D-Lys-ε-(palmitoyl)-N^1-spermine]
0.36

Identify log10(IC50) associated with the compound CCCCCCCN(CCCCCCC)CCCC[C@H](N)C(=O)NCCCNCCCCNCCCN [Compound 30, L-Lys-ε-(bis-(n-heptyl))-N^1-spermine]
1.59

Identify log10(IC50) associated with the compound NCCCNCCCCNCCCNC(=O)C(N)CCCCNC(=O)CCCc1ccc2ccc3cccc4ccc1c2c34 (stereo not drawn) [Compound 22]
2.03

Identify log10(IC50) associated with the compound CCCCCCCCCCCCCCCCCCCC(=O)NCCCCC(N)C(=O)NCCCNCCCCNCCCN [Compound 7, L-Lys-ε-(eicosanoyl)-N^1-spermine]
0.08
